Biological target: hemagglutinin of A/Indonesia/5/05 (H5N1, clade 2) (influenza A virus A/Indonesia/5/05 (H5N1))
Assay: cell-based or functional assay
endpoint: Reciprocal neutralising titre of culture supernatant (reciprocal titre)

Challenge: // returns reported Reciprocal neutralising titre of culture supernatant (reciprocal titre) for input FLD132 (antibody, V domains shown) VH: EVQLVQSGAELKMPGESLKISCKASGYTFTNYWIGWVRQTPGKGLEWMGIIFPPDSQTSYSPSFQGQVTFSVDNSISVAYIQWSSLKASDTAIYYCARSGIFDWSAPLVEAFDIWGQGTVVTVSS VL: DIQLTQSPSFLSASVGDGVTITCRASQDIYIYLAWYQQKPGKAPKLLIYAASTLQGGVPSRFSGSGSGTEFTLTINNLQPEDFATYFCQQLNGYPLTFGGGTKVEIK
Response given: < 8
